- Test system: KDR (phospho-KDR, VEGF165-stimulated HUVEC cells) (Homo sapiens (Human))
- Test protocol: KDR autophosphorylation ELISA in HUVEC cells (Example G)
- Assay type: cell-based
- Condition description: cellular activity; KDR autophosphorylation ELISA in HUVEC cells
Quantity kind: IC50

Requested read-out: IC50. Entry: COc1ccc2nccc(Oc3ccc(NC(=O)c4n[nH]c(C)c(-c5ccc(F)cc5)c4=O)cc3F)c2n1
< 100 nM

Now consider COc1cnc2c(Oc3ccc(NC(=O)c4c(C)n(C)cc(-c5ccc(F)cc5)c4=O)cc3F)ccnc2c1 .
> 300 nM

Try this compound too: COCCOc1nc2c(Oc3ccc(NC(=O)c4c(COC)nc(C)c(-c5ccc(F)cc5)c4O)cc3F)ccnc2cc1OC
< 100 nM

Now try COCc1nc(C)c(Br)c(O)c1C(=O)Nc1ccc(Oc2ccnc3cc(OC)c(OC)nc23)c(F)c1 .
> 300 nM

---

- Test system: KDR (phospho-KDR, VEGF165-stimulated HUVEC cells) (Homo sapiens (Human), UniProt P35968)
- Sequence (P35968 20-1356): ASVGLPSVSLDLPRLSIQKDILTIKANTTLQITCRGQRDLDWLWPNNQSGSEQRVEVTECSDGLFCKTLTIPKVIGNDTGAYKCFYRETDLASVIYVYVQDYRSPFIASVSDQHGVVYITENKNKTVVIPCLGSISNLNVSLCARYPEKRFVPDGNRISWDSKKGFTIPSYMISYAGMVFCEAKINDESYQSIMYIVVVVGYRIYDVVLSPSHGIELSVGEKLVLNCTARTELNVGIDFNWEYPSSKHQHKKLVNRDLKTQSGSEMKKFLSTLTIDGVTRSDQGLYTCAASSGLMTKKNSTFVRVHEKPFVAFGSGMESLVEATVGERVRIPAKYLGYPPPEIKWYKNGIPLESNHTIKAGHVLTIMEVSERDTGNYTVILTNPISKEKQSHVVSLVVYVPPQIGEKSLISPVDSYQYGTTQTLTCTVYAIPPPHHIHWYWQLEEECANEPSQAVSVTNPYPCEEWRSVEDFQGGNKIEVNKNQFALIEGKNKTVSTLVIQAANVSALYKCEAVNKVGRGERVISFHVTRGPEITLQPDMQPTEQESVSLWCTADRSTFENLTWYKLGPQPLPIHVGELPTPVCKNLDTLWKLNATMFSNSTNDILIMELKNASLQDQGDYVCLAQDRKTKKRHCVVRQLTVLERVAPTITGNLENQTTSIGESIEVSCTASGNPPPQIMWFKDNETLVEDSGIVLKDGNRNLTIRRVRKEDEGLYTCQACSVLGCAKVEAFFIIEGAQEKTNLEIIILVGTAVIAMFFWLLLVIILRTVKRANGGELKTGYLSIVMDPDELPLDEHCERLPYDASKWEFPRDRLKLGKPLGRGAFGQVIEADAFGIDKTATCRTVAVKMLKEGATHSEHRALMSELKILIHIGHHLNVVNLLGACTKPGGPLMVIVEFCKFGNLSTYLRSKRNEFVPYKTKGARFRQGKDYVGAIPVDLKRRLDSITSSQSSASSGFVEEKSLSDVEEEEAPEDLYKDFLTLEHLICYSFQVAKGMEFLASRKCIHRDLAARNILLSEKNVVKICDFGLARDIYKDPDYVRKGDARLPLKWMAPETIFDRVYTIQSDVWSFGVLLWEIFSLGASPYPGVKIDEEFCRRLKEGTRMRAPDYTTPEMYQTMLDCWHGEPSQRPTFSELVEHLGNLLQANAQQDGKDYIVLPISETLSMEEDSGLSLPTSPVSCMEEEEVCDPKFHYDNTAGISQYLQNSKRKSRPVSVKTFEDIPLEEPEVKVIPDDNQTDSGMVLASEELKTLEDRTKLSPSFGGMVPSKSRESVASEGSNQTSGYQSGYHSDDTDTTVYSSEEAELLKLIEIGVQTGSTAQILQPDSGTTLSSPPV
- Test protocol: KDR autophosphorylation ELISA in HUVEC cells (Example G)
- Type: cell-based
- Condition description: cellular activity; KDR autophosphorylation ELISA in HUVEC cells
Quantity kind: IC50

I have this molecule here, COc1cc2nccc(Oc3ccc(NC(=O)c4c(C)nc(O)c(-c5ccc(F)cc5)c4O)cc3F)c2nc1OC , and I need its recorded IC50.
> 300 nM

Here is the next molecule: COc1ccc(-c2c(C)ncc(C(=O)Nc3ccc(Oc4ccnc5cc(OC)cnc45)c(F)c3)c2O)c(OC)c1
< 100 nM

How about C=C(C)c1cnc2c(Oc3ccc(NC(=O)c4c(C)ncc(-c5ccc(F)cc5C)c4O)cc3F)ccnc2c1 ?
< 100 nM

Queued: COc1cc2nccc(Oc3ccc(NC(=O)c4c(C)c(C(C)=O)cn(-c5ccc(F)cc5C)c4=O)cc3F)c2nc1OC
> 300 nM

Quick one: CCc1c(C)c(C(=O)Nc2ccc(Oc3ccnc4cc(OC)c(OC)nc34)cc2)c(=O)n(-c2ccc(F)cc2)c1C
> 300 nM

Same lookup for COc1ccc2nccc(Oc3ccc(NC(=O)c4ccc(C)n(-c5ccc(F)cc5)c4=O)cc3)c2n1 , please.
< 100 nM

What do you get for COc1cc2nccc(Oc3cc(F)c(NC(=O)c4c(C)n(C)c(C)c(-c5ccc(F)cc5)c4=O)cc3F)c2nc1OC ?
100 to 300 nM

Request: COc1cnc2c(Oc3ccc(NC(=O)c4c(C)ncc(-c5ccc(F)cc5)c4O)cc3F)ccnc2c1
< 100 nM

Record: COc1cc2nccc(Oc3ccc(NC(=O)c4cn(C(C)(C)C)c(C)c(-c5ccc(F)cc5)c4=O)cc3F)c2nc1OC
> 300 nM

And for COc1cc2nccc(Oc3ccc(NC(=O)c4ccc(C)n(-c5ccc(F)cc5)c4=O)cc3F)c2nc1OC ?
< 100 nM

# iterate: COc1nc2c(Oc3ccc(NC(=O)c4cnc(C)c(-c5ccc(F)cc5)c4O)cc3F)ccnc2cc1-c1cnn(C(F)F)c1
< 100 nM

Proceed to COc1cnc2c(Oc3ccc(NC(=O)c4cn(OC)cc(-c5ccc(F)cc5)c4=O)cc3F)ccnc2c1
< 100 nM

Try the molecule COc1cc2nccc(Oc3ccc(NC(=O)c4n[nH]c(C)c(-c5ccc(F)cc5)c4=O)cc3)c2nc1OC
< 100 nM

And the next one, COCCOc1cc2nccc(Oc3ccc(NC(=O)c4c(C)nc(C)c(-c5ccc(F)cc5C)c4O)cc3)c2nc1OC ?
< 100 nM

---

- Test system: Mer (phospho-Mer, MERTK-transfected 293A cells) (Homo sapiens (Human))
- Sequence (Q12866 21-999): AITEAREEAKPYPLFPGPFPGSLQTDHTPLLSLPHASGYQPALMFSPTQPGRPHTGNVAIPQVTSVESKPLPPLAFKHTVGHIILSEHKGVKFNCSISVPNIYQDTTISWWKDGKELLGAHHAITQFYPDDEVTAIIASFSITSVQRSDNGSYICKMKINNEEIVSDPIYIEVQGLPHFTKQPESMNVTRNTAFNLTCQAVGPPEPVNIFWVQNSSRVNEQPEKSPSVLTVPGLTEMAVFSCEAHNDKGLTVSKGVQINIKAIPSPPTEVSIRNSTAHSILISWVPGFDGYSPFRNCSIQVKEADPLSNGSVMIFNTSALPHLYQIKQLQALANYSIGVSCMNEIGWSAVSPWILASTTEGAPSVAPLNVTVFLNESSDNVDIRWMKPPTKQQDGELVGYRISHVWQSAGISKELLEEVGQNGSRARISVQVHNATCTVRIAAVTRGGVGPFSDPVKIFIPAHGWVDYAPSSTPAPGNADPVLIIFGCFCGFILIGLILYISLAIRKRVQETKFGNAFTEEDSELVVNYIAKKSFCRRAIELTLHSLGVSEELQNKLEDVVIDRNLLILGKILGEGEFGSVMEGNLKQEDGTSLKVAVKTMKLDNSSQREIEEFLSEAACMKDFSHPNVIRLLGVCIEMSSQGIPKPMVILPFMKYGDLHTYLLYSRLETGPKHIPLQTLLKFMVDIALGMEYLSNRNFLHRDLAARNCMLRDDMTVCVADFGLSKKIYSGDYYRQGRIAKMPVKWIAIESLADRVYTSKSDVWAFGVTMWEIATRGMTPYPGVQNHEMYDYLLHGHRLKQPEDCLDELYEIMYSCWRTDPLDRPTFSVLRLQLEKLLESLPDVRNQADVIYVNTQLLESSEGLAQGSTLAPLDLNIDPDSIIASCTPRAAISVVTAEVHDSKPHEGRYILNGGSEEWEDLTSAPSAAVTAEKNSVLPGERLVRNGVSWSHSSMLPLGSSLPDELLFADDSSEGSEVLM
- Test protocol: Mer autophosphorylation ELISA in transient transfected 293A cells (Example H)
- Assay type: cell-based
- Condition description: cellular activity; Mer autophosphorylation ELISA in transient transfected 293A cells
pIC50: −log10 of the molar value.
Quantity kind: pIC50

Reported pIC50 for CNC(=O)Cc1cc2c(Oc3ccc(NC(=O)c4cnc(C)c(-c5ccc(F)cc5)c4O)cc3F)ccnc2cc1OC [Compound 376] : what is it?
> 7.00

# repeat for COc1cc2nccc(Oc3ccc(NC(=O)c4ccnn(-c5ccc(F)cc5)c4=O)cc3F)c2nc1OC [Compound 386]
> 7.00

// next record COc1cc2nccc(Oc3ccc(NC(=O)c4cn(CCF)c(C)c(-c5ccc(F)cc5C)c4=O)cc3F)c2nc1OC [Compound 801]
> 7.00

Record: COc1cc2nccc(Oc3ccc(NC(=O)c4cn(C5CNC5)cc(-c5ccc(F)cc5)c4=O)cc3F)c2nc1OC [Compound 576]
> 7.00

Moving on to the next compound: COc1cnc2c(Oc3cc(F)c(NC(=O)c4c(C)nc(C)c(-c5ccc(F)cc5C)c4O)cc3F)ccnc2c1 [Compound 751]
> 7.00

Now the same for COc1cc2nccc(Oc3ccc(NC(=O)c4cn(C)c(C)c(-c5ccc(F)cc5F)c4=O)cc3)c2nc1OC [Compound 396]
> 7.00

Now this one: COc1cc2nccc(Oc3ccc(NC(=O)c4c(OC)c(C(C)=O)cn(-c5ccc(F)cc5)c4=O)cc3F)c2nc1OC [Compound 754]
> 7.00

Try the compound CCc1c(C)c(C(=O)Nc2ccc(Oc3ccnc4cc(OC)c(OC)nc34)c(F)c2)c(=O)n(-c2ccc(F)cc2)c1C [Compound 330]
> 7.00

Please answer likewise for COc1cc2nccc(Oc3ccc(NC(=O)c4c(C)nc(C)c(-c5ccc(F)cc5C)c4O)cc3)c2nc1Cl [Compound 735]
> 7.00

Proceed to COc1cnc2c(Oc3ccc(NC(=O)c4cnc(C)n(-c5ccc(F)cc5)c4=O)cc3)ccnc2c1 [Compound 266]
> 7.00

For C=C(C)c1cnc2c(Oc3ccc(NC(=O)c4cnc(C)c(-c5ccc(F)cc5)c4O)cc3)ccnc2c1 [Compound 454] then?
> 7.00

Then COc1cc2nccc(Oc3ccc(NC(=O)c4c(C)ncc(-c5ccc(F)cc5)c4O)cc3F)c2nc1OC [Compound 237] ?
> 7.00

Next up: COc1cnc2c(Oc3ccc(NC(=O)c4c(C)cc(C)n(-c5ccc(F)cc5)c4=O)cc3F)ccnc2c1 [Compound 280]
> 7.00

Repeat for the following compound: COCCOc1nc2c(Oc3ccc(NC(=O)c4cn(C)c(C)c(-c5ccc(F)cc5)c4=O)cc3F)ccnc2cc1OC [Compound 198]
> 7.00

What do you have for C=C(C)c1cnc2c(Oc3ccc(NC(=O)c4c(C)ncc(-c5ccc(F)cc5C)c4O)cc3F)ccnc2c1 [Compound 474] ?
> 7.00

Subsequent entry: COc1cc2nccc(Oc3ccc(NC(=O)c4nnc(C)c(-c5ccc(F)cc5)c4OC(C)C)cc3F)c2cc1OC [Compound 574]
> 7.00

Proceed to COc1cc2ncnc(Oc3ccc(NC(=O)c4cn(-c5cnn(C)c5)cc(-c5ccc(F)cc5)c4=O)cc3F)c2nc1OC [Compound 637]
> 7.00

Next up: CCc1nc(C)c(-c2ccc(F)cc2C)c(O)c1C(=O)Nc1ccc(Oc2ccnc3cc(OC)c(OC)nc23)cc1 [Compound 203]
> 7.00

Same thing, different compound: COc1cc2nccc(Oc3ccc(NC(=O)c4c(C)c(F)c(C)n(-c5ccc(F)cc5)c4=O)cc3F)c2nc1OC [Compound 324]
> 7.00

Then what about the compound COc1cc2nccc(Oc3ccc(NC(=O)c4cn(C)c(CF)c(-c5ccc(F)cc5)c4=O)cc3)c2nc1OC [Compound 560] ?
> 7.00

Check COc1cc2nccc(Oc3ccc(NC(=O)c4c(C)nc(C)n(-c5ccc(F)cc5)c4=O)cc3F)c2nc1OC [Compound 101] too.
> 7.00

Same read-out for COc1nc2c(Oc3ccc(NC(=O)c4n[nH]c(C)c(-c5ccc(F)cc5)c4=O)cc3F)ccnc2cc1C [Compound 472] ?
> 7.00

What about this compound? CCc1cnc2c(Oc3ccc(NC(=O)c4cnc(C)c(-c5ccc(F)cc5)c4O)cc3F)ccnc2c1 [Compound 418]
> 7.00

Ok, now C=Cc1c(C)c(C(=O)Nc2ccc(Oc3ccnc4cc(OC)cnc34)c(F)c2)c(=O)n(-c2ccc(F)cc2)c1C [Compound 329]
> 7.00

What do you have for CCc1nc(C)c(-c2ccc(F)cc2C)c(O)c1C(=O)Nc1ccc(Oc2ccnc3ccc(OC)nc23)c(F)c1 [Compound 206] ?
> 7.00

Consider next the compound COc1cnc2c(Oc3ccc(NC(=O)c4cn(CCO)c(C)c(-c5ccc(F)cc5)c4=O)cc3F)ccnc2c1 [Compound 621] in the same way.
6.52 to 7.00

Request: COc1cnc2c(Oc3ccc(NC(=O)c4cn(C(C)C)c(C)c(-c5ccc(F)cc5)c4=O)cc3)ccnc2c1 [Compound 148]
> 7.00

Similarly, CCn1cc(C(=O)Nc2ccc(Oc3ccnc4cc(OC)c(OC)nc34)cc2)c(=O)c(-c2ccc(F)cc2)c1CO [Compound 272] ?
> 7.00

Where do these numbers come from? They come from patent US12371428B2.
